Origin of values: patent US20170319722A1

# test.system: His-tagged CD8α human recombinant protein (TP760215, Origene) (human) (UniProt P01732)
# Sequence (P01732 22-182 limits assumed): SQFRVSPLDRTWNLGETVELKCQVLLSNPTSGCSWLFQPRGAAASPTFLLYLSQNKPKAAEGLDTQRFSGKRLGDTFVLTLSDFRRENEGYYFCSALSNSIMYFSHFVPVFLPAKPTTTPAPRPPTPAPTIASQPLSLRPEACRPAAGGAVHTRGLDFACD
# test.method.notes: sandwich ELISA; range told of the group, upper end tied to Cy(rwfnv) by the legend of FIG. 5
pEC50: −log10 of the molar value.
assay.metric: pEC50

INSERT INTO results (binder, value_observed) VALUES
  ('RWFNV (all residues D-amino acids (lower case); N-terminal biotin-PEG3; triazole-cyclized (Cy) between flanking Pra and Az4) [biotin-PEG3-Cy(rwfnv)]', 7.21);
